Target: α4β1 integrin (Homo sapiens (Human), UniProt P05556+P13612)
Sequence (P13612 34-1032): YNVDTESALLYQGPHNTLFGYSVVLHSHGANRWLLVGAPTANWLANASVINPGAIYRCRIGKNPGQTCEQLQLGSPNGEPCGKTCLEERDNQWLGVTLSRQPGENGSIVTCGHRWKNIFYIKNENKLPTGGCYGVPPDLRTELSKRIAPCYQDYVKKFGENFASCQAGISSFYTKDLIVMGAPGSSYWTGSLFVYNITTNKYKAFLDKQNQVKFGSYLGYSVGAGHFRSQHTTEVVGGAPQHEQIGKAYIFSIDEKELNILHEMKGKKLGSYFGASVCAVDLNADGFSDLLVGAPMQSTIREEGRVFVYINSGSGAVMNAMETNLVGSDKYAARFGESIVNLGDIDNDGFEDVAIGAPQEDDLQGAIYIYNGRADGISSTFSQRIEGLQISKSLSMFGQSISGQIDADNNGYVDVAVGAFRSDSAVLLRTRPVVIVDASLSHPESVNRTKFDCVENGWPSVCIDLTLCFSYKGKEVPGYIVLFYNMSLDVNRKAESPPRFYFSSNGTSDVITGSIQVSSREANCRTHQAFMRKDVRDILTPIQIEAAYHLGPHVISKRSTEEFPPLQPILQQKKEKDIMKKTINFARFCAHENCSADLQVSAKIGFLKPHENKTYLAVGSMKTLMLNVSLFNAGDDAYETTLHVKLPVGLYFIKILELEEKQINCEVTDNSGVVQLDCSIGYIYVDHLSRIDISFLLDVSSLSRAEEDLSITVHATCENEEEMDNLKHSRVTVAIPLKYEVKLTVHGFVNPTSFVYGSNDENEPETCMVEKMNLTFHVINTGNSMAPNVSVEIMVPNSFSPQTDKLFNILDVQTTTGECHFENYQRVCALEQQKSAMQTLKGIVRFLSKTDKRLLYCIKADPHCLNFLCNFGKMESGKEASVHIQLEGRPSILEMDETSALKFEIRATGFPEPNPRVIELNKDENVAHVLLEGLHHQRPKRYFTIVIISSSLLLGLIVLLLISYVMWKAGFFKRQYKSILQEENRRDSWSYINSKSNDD
Sequence (P05556 21-798): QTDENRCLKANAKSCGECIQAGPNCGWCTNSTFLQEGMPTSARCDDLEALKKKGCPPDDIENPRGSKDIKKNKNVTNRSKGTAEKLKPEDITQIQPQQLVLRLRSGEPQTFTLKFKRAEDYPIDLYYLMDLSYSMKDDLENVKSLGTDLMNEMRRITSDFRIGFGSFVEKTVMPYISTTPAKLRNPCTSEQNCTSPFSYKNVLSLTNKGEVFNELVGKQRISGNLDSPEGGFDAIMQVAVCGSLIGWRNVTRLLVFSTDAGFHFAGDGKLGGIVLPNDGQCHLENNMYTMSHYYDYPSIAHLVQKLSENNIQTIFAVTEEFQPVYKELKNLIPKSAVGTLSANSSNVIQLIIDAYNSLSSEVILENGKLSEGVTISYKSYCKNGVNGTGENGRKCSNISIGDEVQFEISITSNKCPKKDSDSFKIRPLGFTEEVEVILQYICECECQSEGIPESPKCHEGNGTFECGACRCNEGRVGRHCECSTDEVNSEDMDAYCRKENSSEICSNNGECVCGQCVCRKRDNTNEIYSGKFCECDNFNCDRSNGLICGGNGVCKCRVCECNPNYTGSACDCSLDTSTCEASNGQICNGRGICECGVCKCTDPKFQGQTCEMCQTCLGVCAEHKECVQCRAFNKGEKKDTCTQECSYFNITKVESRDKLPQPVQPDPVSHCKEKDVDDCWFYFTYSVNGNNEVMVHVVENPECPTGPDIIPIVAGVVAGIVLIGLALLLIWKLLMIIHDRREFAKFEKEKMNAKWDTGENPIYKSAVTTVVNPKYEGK
Assay: Integrin Adhesion Assay: Protocol 5 (VCAM-coated plate, RPMI-8866 cells with stable LOF mutation of the ITGB7 gene)
Format: cell-based
Conditions: RPMI-8866 cells with stable LOF mutation of the ITGB7 gene; read-out: Mean IC50 α4β1 KO^b
pIC50: −log10 of the molar value.
Readout: pIC50

- Molecular string: "Cn1c(=O)c(-c2cccc3c(C[C@H](NC(=O)c4c(F)cc(N(CC(F)(F)F)CC(F)(F)F)cc4F)C(=O)O)cccc23)c(C(F)(F)F)c2ccccc21"
  Value: "< 6.00"
- Molecular string: "O=C(O)[C@H](Cc1cccc2c(-c3ncc(CN4CCCCC4)c4ccccc34)cccc12)NC(=O)C1(C(F)(F)F)CCNCC1"
  Value: "< 6.00"
- Molecular string: "COc1cc2c(c(OC)c1-c1cccc3c(C[C@H](NC(=O)c4c(C)cccc4F)C(=O)O)cccc13)CN(C)CC2"
  Value: "6.00 to 7.00"
- Molecular string: "COc1ccc(CN2CCCC(C)(C)C2)c(OC)c1-c1cccc2c(C[C@H](NC(=O)c3c(C)cccc3F)C(=O)O)cccc12"
  Value: "6.00 to 7.00"
- Molecular string: "COc1ccc(CN2CCC(F)CC2)c(C(F)(F)F)c1-c1cccc2c(C[C@H](NC(=O)c3c(C)cccc3F)C(=O)O)cccc12"
  Value: "< 6.00"
- Molecular string: "COc1ccc(CN(C)C)c(OC)c1-c1cccc2c(C[C@H](NC(=O)c3c(F)cccc3Cl)C(=O)O)cccc12"
  Value: "6.00 to 7.00"
- Molecular string: "COc1ccc(CN2CCC(F)(F)CC2)c(OC)c1-c1cccc2c(C[C@H](NC(=O)c3c(C)cncc3F)C(=O)O)cccc12"
  Value: "< 6.00"
- Molecular string: "COC(=O)[C@H](Cc1cccc2c(-c3c(OC)ccc(CN(C)C)c3C(F)(F)F)cccc12)NC(=O)OC(C)(C)C"
  Value: "6.00 to 7.00"
- Molecular string: "Cn1c(=O)c(-c2cccc3c(C[C@H](NC(=O)C4(C(F)(F)F)CCN(C5CCOCC5)CC4)C(=O)O)cccc23)c(C(F)(F)F)c2ccccc21"
  Value: "< 6.00"
- Molecular string: "COc1ccc(CN2CCC(c3ccccc3)CC2)c(OC)c1-c1cccc2c(C[C@H](NC(=O)c3c(C)cccc3F)C(=O)O)cccc12"
  Value: "6.00 to 7.00"
- Molecular string: "COc1cccc(F)c1C(=O)N[C@@H](Cc1cccc2c(-c3c(OC)ccc(CN4CCCCC4)c3OC)cccc12)C(=O)O"
  Value: "6.00 to 7.00"
- Molecular string: "O=C(O)[C@H](Cc1cccc2c(-c3nccc4c(CN5CCC(F)(F)CC5)cccc34)cccc12)NC(=O)C1(C(F)(F)F)CCN(CC(F)(F)F)CC1"
  Value: "< 6.00"
